tested on: CCRF-CEM leukemia; experiment: NCI tumour cell line growth inhibition, 48 h
*1 amine or outer side, *2 acyl side, *3 side chain or, on linkers, in order; H or OH if unused. Where a SMILES comes first, the peptide text is derived from it. [ ]: non-standard residue; d: D form. ξ: configuration not given here. X22 = O=C(C(CC(O)CO)O[*:1])[*:2]; Ile(3ξ) = CCC(C)[C@H](N)C(=O)O; NMeV = CN[C@H](C(=O)O)C(C)C; NMeA = CN[C@@H](C)C(=O)O; βAla = NCCC(=O)O
Note to self: values exactly at 30 µM are fulfilled. So TGI at or above 30 µM is fulfilled, below is not fulfilled.

{"Molecule": "Cc1cc(C#Cc2ccccc2)ccc1-n1c(/C=C/c2cc(O)ccc2O)nc2ccccc2c1=O", "Label Value": "not fulfilled"}
{"Molecule": "COC(=O)[C@]12CC[C@@H](C)[C@H](C)[C@@H]1C1=CC[C@@H]3[C@@]4(C)CC(=O)[C@H](O)[C@@](C)(CO)[C@@H]4C(=O)C[C@@]3(C)[C@]1(C)CC2", "Label Value": "not fulfilled"}
{"Molecule": "COc1cc(NC(=O)c2ccccc2Nc2ccnc(C(F)(F)F)c2)cc(OC)c1OC", "Label Value": "fulfilled"}
{"Molecule": "O=C(CSc1ncc(-c2ccccc2)n1-c1ccccc1)Nc1ccc(-c2nc3ccccc3s2)cc1", "Label Value": "fulfilled"}
{"Molecule": "O=C(c1ccco1)c1c(C(F)(F)F)n([O-])c2ccc(F)cc2[n+]1=O", "Label Value": "not fulfilled"}
{"Molecule": "CCOC(=O)C(NC(=O)c1cccc(Cl)c1)(N1CCN(c2cc3c(cc2F)c(=O)c(C(=O)O)cn3C2CC2)CC1)C(F)(F)F (centres undefined)", "Label Value": "not fulfilled"}
{"Molecule": "C[N+]1(C)C[C@@H](O)C[C@@H]1C(=O)[O-]", "Label Value": "fulfilled"}
{"Molecule": "CCc1ccc(/C=C/C(=O)C2CN(CC)CCC2(O)/C=C/c2ccc(CC)cc2)cc1 (centres undefined)", "Label Value": "not fulfilled"}
{"Molecule": "NC(=O)c1cc([N+](=O)[O-])cc([N+](=O)[O-])c1", "Label Value": "fulfilled"}
{"Molecule": "COc1cc2c(cc1O)C1CC(CC3CCCCN31)OC(=O)/C=C\\c1ccc(O)c-2c1 (centres undefined)", "Label Value": "fulfilled"}
{"Molecule": "COc1ccc(/C=C2/CN(CCC#N)C/C(=C\\c3ccc(OC)cc3)C2=O)cc1", "Label Value": "fulfilled"}
{"Molecule": "Fc1ccc(-c2nn3c(COc4ccc(Cl)cc4Cl)nnc3s2)cc1Oc1ccccc1", "Label Value": "fulfilled"}
{"Molecule": "COC(=O)/C=C(\\C)CC/C=C(\\C)CCC(O)C(C)(C)O (centres undefined)", "Label Value": "fulfilled"}
{"Molecule": "NC(=O)c1ncn(Cc2ccccc2)c1CNC(N)=S", "Label Value": "fulfilled"}
{"Molecule": "O=C(O)c1nc2ccccc2nc1NCc1ccc(F)cc1", "Label Value": "fulfilled"}
{"Molecule": "Cn1cnc2c1c(=O)n(CCNCCO)c(=O)n2C", "Label Value": "fulfilled"}
{"Molecule": "CCC(C)[C@@H]1NC(=O)[C@@H]2CCCN2C(=O)C(CC(O)CO)OC(=O)CCNC(=O)[C@H](C)N(C)C(=O)[C@H](C(C)C)N(C)C1=O (some centres undefined) (cyclo([Ile(3ξ)][NMeV][NMeA][βAla][X22]P))", "Label Value": "fulfilled"}
{"Molecule": "CS(=O)(=O)OCCN(CCOS(C)(=O)=O)c1ccc(/C=N/Nc2ncnc3nc[nH]c23)cc1", "Label Value": "fulfilled"}
{"Molecule": "CC(=O)C(C=O)C(C)=O.CC(=O)CC(C)=O.CC(=O)CC(C)=O.[Ru]", "Label Value": "not fulfilled"}
{"Molecule": "CCCCCCCCCCCC(=O)OC(COC(N)=O)COc1ccc(Cl)cc1 (centres undefined)", "Label Value": "fulfilled"}
{"Molecule": "Cc1c2cc[n+](C)cc2c(C)c2c1oc1ccccc12", "Label Value": "fulfilled"}
